All figures here come from patent US20070149763A1.

molecular target: BACE (recombinant human BACE catalytic domain, expressed in CHO cells as BACE-T-IgG, IgG1 removed with thrombin) (human) (UniProt P56817); experiment: fluorescence anisotropy competition against Molecule X on BACE, pH 7.1, upper panel; labelled 'Ka' on the sheet without a unit, it is the dissociation constant of the competing ligand, nM from the axis and the lower table; error 33.456; the text prints it rounded (84 nM)
Sequence (P56817 43-460 limits assumed, form in doubt): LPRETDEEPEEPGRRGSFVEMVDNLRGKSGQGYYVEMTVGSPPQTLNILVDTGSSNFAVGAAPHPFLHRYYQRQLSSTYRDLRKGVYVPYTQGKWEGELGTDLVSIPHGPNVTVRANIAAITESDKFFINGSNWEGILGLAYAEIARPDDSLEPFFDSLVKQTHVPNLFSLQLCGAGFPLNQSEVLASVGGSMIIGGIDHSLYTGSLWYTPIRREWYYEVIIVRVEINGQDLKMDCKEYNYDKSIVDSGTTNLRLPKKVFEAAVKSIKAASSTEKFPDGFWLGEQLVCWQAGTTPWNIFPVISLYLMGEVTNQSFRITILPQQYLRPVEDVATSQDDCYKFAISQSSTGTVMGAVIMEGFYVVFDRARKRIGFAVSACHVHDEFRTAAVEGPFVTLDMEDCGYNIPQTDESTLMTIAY
pKd: −log10 of the molar value.

[
  {
    "Binder": "Ac-NLTTYPYFIPLP-NH2 […]",
    "pKd": 7.07
  }
]
